assay: Pharmacokinetic analysis in NCG mice bearing SUDHL6 xenografts (plasma and tumor, LC-MS); type: in vivo; conditions: mouse; plasma, SUDHL6-xenograft NCG mice, single dose 50 mg/kg IP; read-out: Clast
ENDPOINT: concentration at 24 h (ng/mL)

INSERT INTO assay_data (chemical_structure, meas_value) VALUES
  ('CC(C)Oc1ccc(C(=O)Cn2ccnc2)cc1-n1c(CN2CCN(C(=O)COc3ccc(Cl)cc3)CC2)nc2ccccc2c1=O', 30);

----------
assay: Pharmacokinetic analysis in NCG mice bearing SUDHL6 xenografts (plasma and tumor, LC-MS); format: in vivo; details: mouse; tumor tissue, SUDHL6-xenograft NCG mice, single dose 50 mg/kg IP
ENDPOINT: half-life (h)

INSERT INTO assay_data (compound, endpoint, unit_abbreviation, meas_value) VALUES
  ('CC(C)Oc1ccc(C(=O)Cn2ccnc2)cc1-n1c(CN2CCN(C(=O)COc3ccc(Cl)cc3)CC2)nc2ccccc2c1=O [IKE, Imidazole ketone erastin]', 'half-life', 'h', 3.5);
